Source of measurements: the METLIN SMRT retention time set (Domingo-Almenara et al. 2019)

assay_details: gradient 5% acetonitrile 3 min, to 50% in 2 min, to 85% in 15 min, held 3 min, 100 µL/min
test_context: column: Zorbax Extend-C18 2.1 x 50 mm; eluents: water / acetonitrile, 0.1% formic acid
observable: RP-LC retention time (s)

INSERT INTO results (compound, test_value) VALUES
  ('COc1ccc(CCNC(=O)CSc2ncnc3c2nnn3C)cc1OC', 628),
  ('Cc1ccc(NC(=O)Cn2nc3c(Oc4cc(C)cc(C)c4)nccn3c2=O)cc1', 871),
  ('CC(C(=O)N1CCCCC1)n1ccc2cc(S(=O)(=O)N3CCCCCC3)ccc21 (centres undefined)', 1010),
  ('CC1CCN(c2nc(-c3ccc([N+](=O)[O-])cc3)nc3ccccc23)CC1', 1030),
  ('Cc1ccc(CNC(=O)Cn2ccc3sccc3c2=O)cc1', 740),
  ('Cc1ccc(C(C)NC(=O)Cn2cc(-c3noc(-c4ccc(F)cc4)n3)nc2C)cc1 (centres undefined)', 907),
  ('Cc1nn(CC(=O)NCCCN2CCCC2=O)c(=O)c2cc(-c3ccccc3)nn12', 684),
  ('Cc1ccc2nc(-c3ccc(C)c(NC(=O)c4cccs4)c3)[nH]c2c1', 681),
  ('COCC(=O)N1CC(c2nc(-c3ccc(F)cc3)no2)C2(CCOCC2)C1 (centres undefined)', 731);
